- measurementTarget: KRAS G12C (Homo sapiens, UniProt P01116+P62937, G12C)
- Sequence (P01116 1-169 isoform P01116-2 G12C limits assumed): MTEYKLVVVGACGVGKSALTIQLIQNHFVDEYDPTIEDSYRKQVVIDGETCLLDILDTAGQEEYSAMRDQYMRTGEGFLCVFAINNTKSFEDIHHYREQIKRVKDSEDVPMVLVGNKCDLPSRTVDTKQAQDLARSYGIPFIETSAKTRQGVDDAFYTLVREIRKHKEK
- Sequence (P62937 whole entry): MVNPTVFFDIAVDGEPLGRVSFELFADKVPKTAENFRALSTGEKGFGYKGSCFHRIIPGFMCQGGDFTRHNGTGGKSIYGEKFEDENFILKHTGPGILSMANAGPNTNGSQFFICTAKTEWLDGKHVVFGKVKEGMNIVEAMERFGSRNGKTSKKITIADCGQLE
- runDescription: Ras-Raf disruption / FRET / MOA assay (BRAF RBD)
- Format: biochemical
- details: Ras-Raf disruption, with Cyclophilin A; read-out: KRAS G12C FRET data IC50
readoutLabel: IC50

Below are worked cases with known answers.
CCn1c(-c2cccnc2[C@H](C)OC)c2c3cc(ccc31)-c1csc(n1)C[C@H](NC(=O)[C@H](C(C)C)N(C)C(=O)N(C)[C@H]1CCCN(C(=O)[C@H]3CN3)C1)C(=O)N1CCC[C@H](N1)C(=O)OCC(C)(C)C2 (atropisomer, axis not shown) | 100 to 1000 nM
CCn1c(-c2cccnc2[C@H](C)OC)c2c3cc(ccc31)-c1csc(n1)C[C@H](NC(=O)[C@H](C(C)C)N(C)C(=O)N1CCN(C(=O)[C@@H]3CN3)C[C@H]1C)C(=O)N1CCC[C@H](N1)C(=O)OCC(C)(C)C2 | 10 to 100 nM

Problem: Return IC50 (reported value) for this compound: CCn1c(-c2cccnc2[C@H](C)OC)c2c3cc(ccc31)-c1cc(O)cc(c1)C[C@H](NC(=O)[C@H](C(C)C)N(C)C(=O)N1CC(NC(=O)[C@H]3CN3)C1)C(=O)N1CCC[C@H](N1)C(=O)OCC(C)(C)C2 (atropisomer, axis not shown)
Result: 10 to 100 nM

Problem: Name the recorded IC50 of the compound listed here: CCn1c(-c2cccnc2[C@H](C)OC)c2c3cc(ccc31)-c1cc(O)cc(c1)C[C@H](NC(=O)[C@H](C(C)C)N(C)C(=O)N1CCN(C(=O)[C@@H]3CN3)CC1=O)C(=O)N1CCC[C@H](N1)C(=O)OCC(C)(C)C2 (atropisomer, axis not shown)
Result: 10 to 100 nM
